Could you please report measured pIC50 for the items listed next?
TARGET OF ASSAY: HCV polymerase (NS5B) type 1a (Hepatitis C virus genotype 1a, UniProt P26664)
Construct: made in house; host or cells: Escherichia coli (by the 'similar method' of the 1b enzyme)
PROCEDURE SUMMARY: Assay of enzyme (HCV polymerase) inhibitory activity, type 1a enzyme
Assay type: biochemical, HCV type 1a (cloned from the blood of patients)
CONDITION PARAMETERS: HCV polymerase inhibitory activity (IC50), 1a, type 1a enzyme 1.5 μg/ml, 25° C., 60 min
pIC50: −log10 of the molar value.

Identify pIC50 associated with the compound COc1ccc(CC(=O)N2CCN(S(=O)(=O)c3ccc(C(F)(F)F)cc3)[C@@H](C(=O)NCc3ccc(C(C)C)cc3)C2)cc1 [Example 266]
6.00 to 7.00

Look up and report measured pIC50 for this entry: Cc1nc(N2CCN(S(=O)(=O)c3ccc(OC(F)(F)F)cc3)[C@@H](C(=O)NCc3ccc(C(C)C)cc3)C2)sc1C(=O)NCCC(=O)O [Example 361]
> 7.00

For the compound CC(C)c1ccc(CNC(=O)[C@H]2CN(C3CC(=O)NC3=O)CCN2S(=O)(=O)c2ccc(C(F)(F)F)cc2)cc1 (stereo partly shown) [Example 147] , give its measured pIC50 value.
< 6.00

Fill in pIC50 for record CCCc1ccc(CNC(=O)[C@H]2CN(c3cnc(C(=O)O)c(C)n3)CCN2S(=O)(=O)c2ccc(OC(F)(F)F)cc2)cc1 [Example 449]
> 7.00

Provide pIC50 value for the following compound: CCC(F)(F)c1ccc(CNC(=O)[C@H]2CN(C(=O)Nc3ccn(C)n3)CCN2S(=O)(=O)c2ccc(OC(F)(F)F)cc2)cc1 [Example 569]
6.00 to 7.00

Using known records, supply pIC50 for CCC(F)(F)c1ccc(CNC(=O)[C@H]2CN(C(=O)Cn3nnc(C)n3)CCN2S(=O)(=O)c2ccc(OC(F)(F)F)cc2)cc1 [Example 468]
> 7.00

Tell us which pIC50 value is on record for CC(C)c1ccc(CNC(=O)[C@H]2CN(C(=O)CC#N)CCN2S(=O)(=O)c2ccc(C(F)(F)F)cc2)cc1 [Example 258]
> 7.00
